Record type: Ki measurement. Applies to: human NK-3 receptor (Homo sapiens (Human))

See these solved cases before continuing.
>>> readout_value("CC1c2nnc(-c3csc(-c4ccccc4)n3)n2CCN1C(=O)c1ccc(-c2cccs2)cc1 (centres unmarked) [Compound 62]")
"< 500 nM"
>>> readout_value("Cn1nc(-c2ccccc2)cc1-c1nnc2n1CCN(C(=O)c1ccc(F)cc1)C2 [Compound 225]")
"1000 to 5000 nM"
>>> readout_value("O=C(c1ccc(F)cc1)N1CCn2c(nnc2-c2n[nH]c(-c3ccccc3)n2)C1 [Compound 178]")
"1000 to 5000 nM"
>>> readout_value("O=C(c1ccc(F)cc1)N1CCn2c(nnc2-c2ccc3cccc(F)c3n2)C1 [Compound 22]")
"500 to 1000 nM"
>>> readout_value("O=C(c1ccc(-c2ccc(F)cc2)cc1)N1CCn2c(nnc2-c2csc(Cn3cnc(Cl)c3Cl)n2)C1 [Compound 187]")
"1000 to 5000 nM"
>>> readout_value("C[C@@H]1c2nnc(-c3coc(-c4ccccc4)n3)n2CCN1C(=O)c1ccc(-c2ccccc2)cc1 [Compound 131]")
"< 500 nM"

Look up Ki with human NK-3 receptor (Homo sapiens (Human)) for this compound: O=C(c1ccc(F)cc1)N1CCn2c(nnc2-c2csc(-c3ccc(C(F)(F)F)cc3)n2)C1 [Compound 24]
< 500 nM

Look up Ki with human NK-3 receptor (Homo sapiens (Human)) for this compound: O=C(c1ccc(-c2cccs2)cc1)N1CCn2c(nnc2-c2csc(-c3ccccc3O)n2)C1 [Compound 262]
< 500 nM

* * *

// reported pKi for each item listed
TEST TARGET: human NK-3 receptor (Homo sapiens (Human))
pKi: −log10 of the molar value.

See these solved cases before continuing.
>>> readout_value("O=C(c1ccc(-c2ccc(F)cc2)cc1)N1CCn2c(nnc2-c2nc(-c3ccccc3)no2)C1")
"> 6.30"
>>> readout_value("O=C(c1ccc(-c2ccc(F)cc2)cc1)N1CCn2c(nnc2-c2ccccn2)C1")
"5.30 to 6.00"
>>> readout_value("O=C(c1ccc(F)cc1)N1CCn2c(-c3csc(-c4ccccc4)n3)nnc2C1c1ccc(F)cc1 (centres unmarked)")
"> 6.30"
>>> readout_value("Cc1ccc(C(=O)N2CCn3c(nnc3-c3ccccn3)C2)cc1")
"5.30 to 6.00"

Now look at this entry.
Query (compound): O=C(c1ccc(Cl)c(Cl)c1)N1CCn2c(nnc2-c2ccccn2)C1 ; field requested: pKi
5.30 to 6.00

* * *

Record type: Ki measurement. Applies to: human NK-3 receptor (Homo sapiens (Human), UniProt P29371)

See these solved cases before continuing.
>>> readout_value("O=C(c1ccc(-c2cccs2)cc1)N1CCn2c(nnc2-c2csc(-c3ccc(N4CCOCC4)cc3)n2)C1 [Compound 239]")
"1000 to 5000 nM"
>>> readout_value("O=C(c1ccc(F)cc1)N1CCn2c(nnc2-c2nc(-c3ccccc3)ns2)C1 [Compound 212]")
"< 500 nM"
>>> readout_value("O=C(c1ccc(-c2ccccc2)cc1)N1CCn2c(nnc2-c2csc(N3CCOCC3)n2)C1 [Compound 20]")
"< 500 nM"
>>> readout_value("O=C(c1ccc(-c2ccc(F)cc2)cc1)N1CCn2c(nnc2-c2csc(CS(=O)(=O)c3ccc(Cl)cc3)n2)C1 [Compound 200]")
"500 to 1000 nM"
>>> readout_value("C[C@H]1c2nnc(-c3ccc4ccccc4n3)n2CCN1C(=O)c1ccc(F)cc1 [Compound 162]")
"< 500 nM"

Now look at this entry.
Look up Ki with human NK-3 receptor (Homo sapiens (Human), UniProt P29371) for this compound: Cc1nc(-c2ccccc2)sc1-c1nnc2n1CCN(C(=O)c1ccc(F)cc1)C2C (stereo not drawn) [Compound 75]
Sequence (P29371 whole entry): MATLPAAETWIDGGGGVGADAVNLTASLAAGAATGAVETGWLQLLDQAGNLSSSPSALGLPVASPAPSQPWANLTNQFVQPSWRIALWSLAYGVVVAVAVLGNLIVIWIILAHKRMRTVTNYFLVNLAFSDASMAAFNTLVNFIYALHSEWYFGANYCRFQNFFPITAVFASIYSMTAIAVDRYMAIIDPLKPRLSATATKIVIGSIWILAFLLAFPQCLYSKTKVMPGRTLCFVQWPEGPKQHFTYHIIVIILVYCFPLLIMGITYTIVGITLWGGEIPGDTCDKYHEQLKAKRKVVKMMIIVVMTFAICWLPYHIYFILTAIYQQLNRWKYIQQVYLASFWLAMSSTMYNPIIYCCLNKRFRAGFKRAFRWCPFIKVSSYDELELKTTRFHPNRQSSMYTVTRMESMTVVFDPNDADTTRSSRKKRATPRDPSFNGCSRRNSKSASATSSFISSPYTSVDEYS
500 to 1000 nM

* * *

// reported pKi for each item listed
TEST TARGET: human NK-3 receptor (Homo sapiens (Human))
pKi: −log10 of the molar value.

See these solved cases before continuing.
>>> readout_value("CC1CN(C(=O)c2ccc(-c3cccs3)cc2)Cc2nnc(-c3csc(-c4ccc(F)cc4)n3)n21 (stereo not drawn)")
"6.00 to 6.30"
>>> readout_value("O=C(c1ccc(F)cc1)N1CCn2c(nnc2-c2csc(-c3ccccc3O)n2)C1")
"> 6.30"
>>> readout_value("CC1(C)CCN(c2nc(-c3nnc4n3CCN(C(=O)c3ccc(-c5cccs5)cc3)C4)cs2)CC1")
"6.00 to 6.30"

Query (compound): O=C(c1ccc(F)cc1)N1CCn2c(nnc2-c2csc(N3CCCC3)n2)C1 ; field requested: pKi
> 6.30

Query (compound): CC(C)CC(=O)N1CCn2c(nnc2-c2ccc3ccccc3n2)C1 ; field requested: pKi
5.30 to 6.00

Query (compound): CC1c2nnc(-c3csc(N4CCOCC4)n3)n2CCN1C(=O)c1ccc(-c2ccccc2)cc1 (stereo not drawn) ; field requested: pKi
> 6.30
